Value source: the supplement of paper PMC12667976

Consider the following variants; for each one, report its AIRE transcriptional activation functional score.
B1: library; numbered along this chain (parent)
chain: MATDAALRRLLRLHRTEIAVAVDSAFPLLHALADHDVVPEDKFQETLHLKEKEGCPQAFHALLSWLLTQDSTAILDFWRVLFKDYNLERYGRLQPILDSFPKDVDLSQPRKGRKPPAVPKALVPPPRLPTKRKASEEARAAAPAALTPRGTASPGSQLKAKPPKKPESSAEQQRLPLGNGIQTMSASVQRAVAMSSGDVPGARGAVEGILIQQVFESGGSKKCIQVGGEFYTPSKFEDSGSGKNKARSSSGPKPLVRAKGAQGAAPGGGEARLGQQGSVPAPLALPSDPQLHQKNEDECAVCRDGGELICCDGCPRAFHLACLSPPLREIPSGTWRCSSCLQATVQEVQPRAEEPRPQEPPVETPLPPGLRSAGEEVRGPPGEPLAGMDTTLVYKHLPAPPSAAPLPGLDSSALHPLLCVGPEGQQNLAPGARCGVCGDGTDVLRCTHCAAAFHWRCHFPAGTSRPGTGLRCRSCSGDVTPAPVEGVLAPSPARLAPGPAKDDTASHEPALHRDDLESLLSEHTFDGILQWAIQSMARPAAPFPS

Variants of: B1
Experiment: AIRE transcriptional activation functional score (insulin promoter-GFP; nonsense median 0, synonymous median 1) (normalised score); higher = higher AIRE activity (more reporter activation)
Details: with insulin promoter-GFP reporter in HEK293
Give bare numbers.

• E51A = 0.128

For each of the variants below, state AIRE transcriptional activation functional score.
1. P200M
2. F230I

[reply]
1. 1.52
2. 0.507

Batch: AIRE transcriptional activation functional score for all items listed.
1. P365L
2. A505G
3. L273W
4. G208Q
5. T334D
6. P360A
7. V188N

[reply]
1: 1.07; 2: 0.337; 3: 1.37; 4: 1.23; 5: 0.352; 6: 0.888; 7: 0.669

// each listed variant needs a value for AIRE transcriptional activation functional score
1. F525H
2. D442Q
3. F230T
4. G204S
5. A33G

[reply]
-0.0452
1.03
0.761
0.807
0.554

Batch lookup, AIRE transcriptional activation functional score per entry.
1. A450F
2. G219P
3. G155A
4. P509Q
5. D238R

[reply]
1.24
0.556
1.44
1.12
0.333
